# Protocol: in vitro
# Condition Context: human, hela cells, % viability
Readout Name: viability at 28.5 h, 10 µM (%)
# number only, unit % dropped from output

Below are worked cases with known answers.
So what does the record say about viability at 28.5 h, 10 µM for COc1ccc(-n2nnnc2SCc2ccc(Cl)cc2)cc1 ?
60.7

Please give the measured viability at 28.5 h, 10 µM for this compound: Cn1cncc1C(=O)N1CCc2ccccc21
86.7

Would you kindly share the measured viability at 28.5 h, 10 µM for CCc1nn(C)cc1CN1CCOC(c2nc(C(C)(C)C)cs2)C1 (stereo not shown) ?
104

Given the compound CCOCCN(CCOCC)c1nnc2ccc(Cl)nn12 , what is its reported viability at 28.5 h, 10 µM?
99.6

Returns the measured viability at 28.5 h, 10 µM for the input compound. Input: O=C(Nc1ccccc1)NC(N1CCOCC1)C(Cl)(Cl)Cl (stereo not shown)
103

I'd like to know its viability at 28.5 h, 10 µM. The compound in question is COc1cc(OC)cc(C(=O)N[C@@H]2CC[C@@]3(c4ccc(OC)c(OC)c4)CCN(C)[C@H]3C2)c1 [CBK074242T]
115

For COc1cc2c3c(cccc3c1)CC(C)(N(C)C)C2 (stereo not shown) [CBK024357C] , what is its reported viability at 28.5 h, 10 µM?
105

Endpoint output: viability at 28.5 h, 10 µM of Cc1ccccc1S(=O)(=O)Nc1cc(CN2C[C@H](C)NC[C@H]2C)c2occc2c1 [CBK107210T] . Value?
108

Read the next record carefully.
Fill in: viability at 28.5 h, 10 µM of COCCOCC(=O)N1CC(=O)N(c2ccccc2C#N)CC1C (stereo not shown) is ___
91.7
